# reported Antioxidant status in mM Trolox equivalent, High value; entries follow
experiment: AIOR assay (antioxidant inhibition of radical assay): uroporphyrin I fluorescence decay with AAPH, area under curve against Trolox standard curve; assay type: biochemical; settings: solvent compared against blank; n=9
experimental endpoint: Antioxidant status in mM Trolox equivalent, High value (mM)

- compound: "CC(C)O"
  quantitative result: 0.1
- compound: "CCO"
  quantitative result: 0.1
- compound: "CC(C)=O"
  quantitative result: 0.2
- compound: "C[S+](C)[O-] [DMSO, Dimethyl sulphoxide]"
  quantitative result: 1.2
